Test system: NCI-H1437
ASSAY TEXT: relative viability (nuclei count vs DMSO), 5 days (fraction); higher = more cells survive
MEASUREMENT CONTEXT: first compound 8 µM
Below: a set of entries, each annotated with reported relative viability.

Guide cases for relative viability, answers given:
>>> value_measured("C=C1C(=O)O[C@@H](CCCCCCCC)[C@@H]1C(=O)O [C-75] + CS(=O)(=O)N1CCN(Cc2cc3nc(-c4cccc5[nH]ncc45)nc(N4CCOCC4)c3s2)CC1 [Pictilisib] (partner 1 µM)")
0.491
>>> value_measured("C=C1C(=O)O[C@@H](CCCCCCCC)[C@@H]1C(=O)O [C-75] + Nc1ncn([C@H]2C[C@H](O)[C@@H](CO)O2)c(=O)n1 [Decitabine] (partner 2 µM)")
0.48
>>> value_measured("C=C1C(=O)O[C@@H](CCCCCCCC)[C@@H]1C(=O)O [C-75] + Cc1nc(Nc2ncc(C(=O)Nc3c(C)cccc3Cl)s2)cc(N2CCN(CCO)CC2)n1 [Dasatinib] (partner 0.075 µM)")
0.458

Pending molecule:
Ask: I am curious: what relative viability value has been reported for C=C1C(=O)O[C@@H](CCCCCCCC)[C@@H]1C(=O)O [C-75] + CC(=O)Nc1cccc(-n2c(=O)n(C3CC3)c(=O)c3c(Nc4ccc(I)cc4F)n(C)c(=O)c(C)c32)c1 [Trametinib] (partner 0.02 µM) ?
Result: 0.586

---

System: NCI-H727
ASSAY TEXT: relative viability (nuclei count vs DMSO), 5 days (fraction); higher = more cells survive
MEASUREMENT CONTEXT: first compound 1 µM
Binary call on relative viability with cut-off 0.2: strictly below means True, and equality or higher means False.

# count of solved cases: 4
>>> class("NC(=O)Nc1cc(-c2cccc(F)c2)sc1C(=O)N[C@H]1CCCNC1 [AZD7762] + N=C(N)NC(=N)NCCc1ccccc1 [Phenformin] (partner 250 µM)")
"False"
>>> class("NC(=O)Nc1cc(-c2cccc(F)c2)sc1C(=O)N[C@H]1CCCNC1 [AZD7762] + C[C@]1(O)C[C@@H](c2nc(-c3ccc4ccc(-c5ccccc5)nc4c3)c3c(N)nccn32)C1 [Linsitinib] (partner 1 µM)")
"True"
>>> class("NC(=O)Nc1cc(-c2cccc(F)c2)sc1C(=O)N[C@H]1CCCNC1 [AZD7762] + Cc1cc(Nc2cc(N3CCN(C)CC3)nc(Sc3ccc(NC(=O)C4CC4)cc3)n2)n[nH]1 [Tozasertib] (partner 0.1 µM)")
"False"
>>> class("NC(=O)Nc1cc(-c2cccc(F)c2)sc1C(=O)N[C@H]1CCCNC1 [AZD7762] + Cc1nc(NC(=O)N2CCC[C@H]2C(N)=O)sc1-c1ccnc(C(C)(C)C(F)(F)F)c1 [Alpelisib] (partner 2 µM)")
"False"

Ask: Hello, is relative viability of the following compound strictly smaller than 0.2? NC(=O)Nc1cc(-c2cccc(F)c2)sc1C(=O)N[C@H]1CCCNC1 [AZD7762] + C[C@@H](Oc1cc(-c2cnn(C3CCNCC3)c2)cnc1N)c1c(Cl)ccc(F)c1Cl [Crizotinib] (partner 1 µM)
Result: False

---

Tested on: Calu-6
ASSAY TEXT: relative viability (nuclei count vs DMSO), 5 days (fraction); higher = more cells survive
MEASUREMENT CONTEXT: first compound 2.53 µM
EXPERIMENTAL ENDPOINT: relative viability
Lab note: record the figure alone, no unit after it.

>>> value_measured("Oc1nc(-c2ccc(C(F)(F)F)cc2)nc2c1CSCC2 [XAV939] + CC(C)C[C@H](NC(=O)[C@H](Cc1ccccc1)NC(=O)c1cnccn1)B(O)O [Bortezomib] (partner 0.002 µM)")
0.978
>>> value_measured("Oc1nc(-c2ccc(C(F)(F)F)cc2)nc2c1CSCC2 [XAV939] + CS(=O)(=O)N1CCN(Cc2cc3nc(-c4cccc5[nH]ncc45)nc(N4CCOCC4)c3s2)CC1 [Pictilisib] (partner 1 µM)")
0.841
>>> value_measured("C=C1C(=O)O[C@@H](CCCCCCCC)[C@@H]1C(=O)O [C-75] + Cc1nc(NC(=O)N2CCC[C@H]2C(N)=O)sc1-c1ccnc(C(C)(C)C(F)(F)F)c1 [Alpelisib] (partner 2 µM)")
0.796

Ask: Hello, I am looking for reported relative viability with Calu-6 for C=C1C(=O)O[C@@H](CCCCCCCC)[C@@H]1C(=O)O [C-75] + CC(C)C[C@H](NC(=O)[C@H](Cc1ccccc1)NC(=O)c1cnccn1)B(O)O [Bortezomib] (partner 0.002 µM) . Could you help?
Result: 0.92

Ask: Return relative viability measured with Calu-6 given this compound: C=C1C(=O)O[C@@H](CCCCCCCC)[C@@H]1C(=O)O [C-75] + O=C(c1cc(Cc2n[nH]c(=O)c3ccccc23)ccc1F)N1CCN(C(=O)C2CC2)CC1 [Olaparib] (partner 8 µM)
Result: 0.489
